- System: Myc-Ly6 cells overexpressing Smo, Smo535, Smo562, Gli1 or Fused
- ASSAY REMARKS: Luciferase assay with lymphoma cells overexpressing Hh pathway members on stromal layer
- Format: cell-based, mouse
- ASSAY CONDITIONS: Mus musculus, 48 h, cyclopamine sensitive lymphoma cell lines without overexpression
MEASURE: IC50 (nM)
Give the value in nM but do not write nM after it.

GET /values?readout=IC50&system=Myc-Ly6 cells overexpressing Smo, Smo535, Smo562, Gli1 or Fused&item= CC1=C2C[C@H]3[C@@H](CC=C4C[C@@H](O)CC[C@@]43C)[C@@H]2CC[C@]12O[C@@H]1C[C@H](C)CN[C@H]1[C@H]2C
1000
